system: SK-MEL-28 melanoma; assay: NCI tumour cell line growth inhibition, 48 h
endpoint label: TGI

> print(dat)
                                    compound  result.value
 1  [N-]=[N+]=NCCCn1c2c(c3ccc([N+](=O)[O-])cc3c1=O)C(=O)c1cc(-c3ccccc3)ccc1-2      > 100 µM
 2  O=C(Nc1cc(Cl)cc(Cl)c1)c1cccc(NC2=C(Cl)C(=O)N(Cc3ccccc3)C2=O)c1      > 100 µM
 3  C=CCNC1=C2C[C@@H](C)C[C@H](OC)[C@H](O)[C@@H](C)/C=C(\C)[C@H](OC(N)=O)[C@@H](OC)/C=C\C=C(/C)C(=O)NC(=CC1=O)C2=O       32.5 µM
 4  CC(=O)Nc1cc2cc(NS(=O)(=O)c3ccc(Cl)c(Cl)c3)ccc2oc1=O      > 100 µM
 5  O=C1c2ccccc2C(=O)c2c(NC(=O)C3CC3)ccc(NC(=O)C3CC3)c21      > 100 µM
 6  O=C(Nc1ccc(Cl)cc1)c1cc([N+](=O)[O-])ccc1O       15.6 µM
 7                O=C1OCC(c2ccc(Cl)cc2)=C1Cl      > 100 µM
 8  CCOC(=O)CSC1NC(C(=O)OC)CC1OC (stereo not drawn)      > 100 µM
 9  COc1cc([N+](=O)[O-])c(S(=O)(=O)O)cc1-n1nc(C(=O)Nc2ccccc2)n[n+]1-c1cc(S(=O)(=O)[O-])c([N+](=O)[O-])cc1OC      > 100 µM
10        Fc1ccc(-c2nn3ccccc3c2-c2ccncc2)cc1       > 25 µM
11  COC(=O)CN1C(=O)C2(C(=O)OC)OC1(c1ccc([N+](=O)[O-])cc1)C1C(=O)N(c3ccccc3)C(=O)C12 (stereo not drawn)      > 100 µM
12  O=[N+]([O-])c1cc(N=Nc2c(O)ccc3cc(S(=O)(=O)O)ccc23)c(O)c([N+](=O)[O-])c1      > 100 µM
13                       CC(C)OC/N=C(/N)NC#N      > 100 µM

###

The reader will find reported GI50 values listed item by item below.
test system: HT29 colon; assay: NCI tumour cell line growth inhibition, 48 h
endpoint label: GI50

> print(dat)
                                   compound  endpoint.label  result.value
1  O=C(Nc1cc(Cl)ccc1O)c1cccc(Nc2ccnc(C(F)(F)F)c2)c1            GI50       11.1 µM
2  COc1cc2c3c(n(CCCNCCCNCCN)c(=O)c2cc1OC)-c1cc2c(cc1C3=O)OCO2            GI50       20.9 µM
3  C=C1C(=O)O[C@H]2[C@H]1CC/C(COC(=O)/C=C\C(=O)NCc1ccc(Cn3c(=O)sn(CCI)c3=O)cc1)=C\CC[C@@]1(C)O[C@@H]21            GI50       2.26 µM
4  COc1ccccc1[As]=[As]c1ccccc1OC (centres undefined)            GI50     0.0405 µM
5  C#CC1(O)C(COP(=O)(O)OCC2OC(n3cc(F)c(=O)[nH]c3=O)CC2O)OC(n2ccc(N)nc2=O)C1O (centres undefined)            GI50     < 0.01 µM
6  COc1ccc(C2C(C#N)=C(N)Oc3c2sc2c(Br)cccc32)cc1 (centres undefined)            GI50        3.8 µM
7  OC1CCCC2CCC[N-]C12.OC1CCCC2CCC[N-]C12.[O]=[V][OH] (centres undefined)            GI50       4.72 µM
8  C[N+](C)(C)c1cc[c]([Sn]([c]2ccc([N+](C)(C)C)cc2)([c]2ccc([N+](C)(C)C)cc2)[c]2ccc([N+](C)(C)C)cc2)cc1            GI50      > 100 µM
9  CCOC(=O)c1c(C)nc2c(c1N)/C(=C/c1ccccn1)C(=O)N2Cc1ccccc1            GI50       1.32 µM

###

tested on: OVCAR-8 ovarian; experiment: NCI tumour cell line growth inhibition, 48 h
The reader will find reported TGI values listed item by item below.
endpoint label: TGI

> print(dat)
                                    molecule  result.value
 1  CC(=O)NNc1nc(C)c(C(=O)NNC(=O)C(=O)Nc2c([N+](=O)[O-])ccc(C)c2C)s1      > 100 µM
 2      Oc1ccc2ccccc2c1C=NCc1c(O)ccc2ccccc12      > 100 µM
 3  COc1cc(/C=C(\NC(=O)c2ccccc2)c2nc3ncncc3[nH]2)cc(OC)c1OC      > 100 µM
 4  Cn1c(=O)c(Oc2ccc(F)cc2F)cc2cnc(N[C@@H]3CCOC3)nc21       > 25 µM
 5  C(=C\C(Sc1ccccc1)c1ccccc1)/NNC1=NC(c2ccccc2)C(c2ccccc2)=NN1 (stereo not drawn)      > 100 µM
 6  CN(C)CCCNC(=O)c1cc(NS(=O)(=O)c2ccc3c(c2)C(=O)c2ccccc2C3=O)cn1C      > 100 µM
 7  O=C1CCC2c3ccccc3NCN12 (stereo not drawn)      > 100 µM
 8  N#CC1(C#N)C=CC(=C2OCC3CCCN23)C=C1 (stereo not drawn)      > 100 µM
 9        Fc1ccc(-c2nn3ccccc3c2-c2ccncc2)cc1       > 25 µM
10   CCn1c(=O)c(C(=O)O)c(Cl)c2cc3c(cc21)OCO3      > 100 µM
11  COc1cc2ncnc(Nc3ccc(Oc4ccnc(C)c4)c(C)c3)c2cc1NC(=O)CC1CCSS1 (stereo not drawn)       > 50 µM
12  O=C(Nc1cc(Cl)cc(Cl)c1)c1cccc(NC2=C(Cl)C(=O)N(Cc3ccccc3)C2=O)c1      > 100 µM
13                       CC(C)OC/N=C(/N)NC#N      > 100 µM

###

tested on: SK-MEL-5 melanoma; experiment: NCI tumour cell line growth inhibition, 48 h; in the data active = GI50 below about 0.43 µM; inactive = the rest
Outcome codes: T (active), F (inactive)

> print(dat)
                                   compound                tgt  class.name
1  CCOc1ccc(C(C[N+](=O)[O-])Sc2ccccc2N)cc1 (centres undefined)  SK-MEL-5 melanoma           F
2  N#Cc1nc(C#N)c(Sc2ccccc2)c(Sc2ccccc2)c1Sc1ccccc1  SK-MEL-5 melanoma           F
3  Nc1ncc(-c2ccc3ncnc(N4CCc5ccc(Cl)cc54)c3c2)cc1C(F)(F)F  SK-MEL-5 melanoma           F
4  O=C(NCCOCCOCCOCCNC(=O)c1cc2c(o1)C(=O)c1ccccc1C2=O)NC12CC3CC(CC(C3)C1)C2  SK-MEL-5 melanoma           T
5  [N-]=[N+]=NCCCn1c2c(c3ccc([N+](=O)[O-])cc3c1=O)C(=O)c1cc(-c3ccccc3)ccc1-2  SK-MEL-5 melanoma           F
6  c1ccc(Oc2ccc(Nc3ncc(-c4ccccc4)o3)cc2)cc1  SK-MEL-5 melanoma           F
7  CCN(CC)c1ccc(-c2cc(-c3cc(OC)c(OC)c(OC)c3)nc(N3CCC(O)CC3)c2C#N)cc1  SK-MEL-5 melanoma           T
8  CCC(C)C1=C(O)[N+]2([O-])Oc3ccc(C4=C(O)C(=O)C(c5ccc(O)cc5)=C(O)C4=O)cc3OC2(C(C)CC)C(=O)N1O (centres undefined)  SK-MEL-5 melanoma           F
9   NCCCNc1nc2ccccc2c2c(=O)c3cccc(Cl)c3sc12  SK-MEL-5 melanoma           F

###

The reader will find reported GI50 values listed item by item below.
tested on: OVCAR-8 ovarian; assay: NCI tumour cell line growth inhibition, 48 h
endpoint label: GI50

> print(dat)
                                   compound  endpoint.label  result.value
1                CC(=O)/C(Br)=C/c1ccc(Br)o1            GI50       3.33 µM
2  OC1CCCC2CCC[N-]C12.OC1CCCC2CCC[N-]C12.[O]=[V][OH] (stereo not drawn)            GI50       2.98 µM
3  Clc1ccc2c(c1)N(C1CCCN(Cc3ccccc3)C1)c1ccccc1S2 (stereo not drawn)            GI50       6.36 µM

###

system: IGROV1 ovarian; experiment: NCI tumour cell line growth inhibition, 48 h
endpoint label: TGI (µM)

> print(dat)
                              smiles.record  result.operator  result.value
1  Cn1cc(C2=C(c3cn(CCCN)c4ccccc34)C(=O)NC2=O)c2ccccc21                >          19.7
2  C[N+](C)(C)c1cc[c]([Sn]([c]2ccc([N+](C)(C)C)cc2)([c]2ccc([N+](C)(C)C)cc2)[c]2ccc([N+](C)(C)C)cc2)cc1                >           100
3                CC(=O)/C(Br)=C/c1ccc(Br)o1                =          29.2
4  CNC(=O)c1c(F)cccc1Nc1nc(Nc2cc3c(cc2OC)CCN3C(=O)CN(C)C)nc2[nH]ccc12                =          43.1
